System: HT-29
Assay explanation: Cytotoxicity against human HT-29 cells after 72 hrs by MTT assay
Assay type: functional
Condition details: HT-29, 72 h
Attribute measured: LC50 (µM)
The figure you give is taken to be in µM; do not add the unit.

Q: State the recorded LC50 for this entry: N#C[Se]c1ccc(NC(=O)Oc2ccccc2)cc1
Ans: 71.7

Q: How about this molecule: CCCCCCOC(=O)Nc1ccc([Se]C#N)cc1
Ans: 69.9

Q: Can you check N#C[Se]c1ccc(NC(=O)OCc2ccc([N+](=O)[O-])cc2)cc1 next?
Ans: 71.9

Q: Let us now turn to Cc1ccc(OC(=O)Nc2ccc([Se]C#N)cc2)cc1
Ans: 68.7

* * *

Test system: HT-29
Assay explanation: Cytotoxicity against human HT-29 cells after 72 hrs by MTT assay
Assay type: functional
Condition details: HT-29, 72 h
# TGI per record follows
Field: numeric (µM). Do not append units.

The following compounds have reported results that may help.
| Compound smiles | Tested system | Result units | TGI |
| --- | --- | --- | --- |
| COc1ccc(OC(=O)Nc2ccc([Se][Se]c3ccc(NC(=O)Oc4ccc(OC)cc4)cc3)cc2)cc1 | HT-29 | µM | 46.1 |
| N#C[Se]c1ccc(NC(=O)OCc2ccccc2)cc1 | HT-29 | µM | 41.2 |
| C=CCOC(=O)Nc1ccc([Se]C#N)cc1 | HT-29 | µM | 48.6 |

Q: Returns the measured TGI for the input compound. Input: CCCCOC(=O)Nc1ccc([Se]C#N)cc1
Ans: 31.3

Q: Next record, please: Cc1ccc(OC(=O)Nc2ccc([Se]C#N)cc2)cc1
Ans: 38.8

Q: What do we get for Cc1ccc(OC(=O)Nc2ccc([Se][Se]c3ccc(NC(=O)Oc4ccc(C)cc4)cc3)cc2)cc1 ?
Ans: 39.4

Q: Next record, please: CC(C)COC(=O)Nc1ccc([Se][Se]c2ccc(NC(=O)OCC(C)C)cc2)cc1
Ans: 48.6

Q: Now consider CCCOC(=O)Nc1ccc([Se]C#N)cc1 .
Ans: 51.9

Q: Same for O=C(Nc1ccc([Se][Se]c2ccc(NC(=O)Oc3ccc(F)cc3)cc2)cc1)Oc1ccc(F)cc1
Ans: 51.9

* * *

System: MCF7
Assay explanation: Cytotoxicity against human MCF7 cells after 72 hrs by MTT assay
Format: functional
Condition details: MCF7, 72 h, read-out: LC50 (the source's name)
Returns: string. Value is criterion met if measured CC50 is below 70 µM, and criterion not met if it is greater than or equal to it.

Would you please look over these solved cases?
| Molecule | Cat |
| --- | --- |
| COc1cc([C@@H]2c3cc4c(cc3[C@@H](O[C@@H]3O[C@@H]5CO[C@@H](C)O[C@H]5[C@H](O)[C@H]3O)[C@H]3COC(=O)[C@H]23)OCO4)cc(OC)c1O [ETOPOSIDE] | criterion not met |
| N#C[Se]c1ccc(NC(=O)OCC2=Cc3ccccc3S2(=O)=O)cc1 | criterion met |
| CC(C)COC(=O)Nc1ccc([Se][Se]c2ccc(NC(=O)OCC(C)C)cc2)cc1 | criterion not met |

Q: Item N#C[Se]c1ccc(NC(=O)Oc2ccc(F)cc2)cc1 : CC50 beneath 70 µM, strictly?
Ans: criterion met

Q: Field entry: O=C(Nc1ccc([Se][Se]c2ccc(NC(=O)OCc3ccccc3)cc2)cc1)OCc1ccccc1
Ans: criterion not met

Q: Next entry: CCCCCCOC(=O)Nc1ccc([Se][Se]c2ccc(NC(=O)OCCCCCC)cc2)cc1
Ans: criterion not met

Q: Likewise for N#C[Se]c1ccc(NC(=O)OCC2c3ccccc3-c3ccccc32)cc1 ?
Ans: criterion met

Q: Please answer likewise for O=C(Nc1ccc([Se][Se]c2ccc(NC(=O)OCc3ccc([N+](=O)[O-])cc3)cc2)cc1)OCc1ccc([N+](=O)[O-])cc1
Ans: criterion not met

Q: Then this molecule: CCCCOC(=O)Nc1ccc([Se][Se]c2ccc(NC(=O)OCCCC)cc2)cc1
Ans: criterion not met
